Test system: PfSIP2 AP2 domain 1 (GST-tagged)
Test: gcPBM binding intensity (ln(normalized median fluorescence intensity)); higher = stronger DNA binding
In all, about 25,000 sequences were measured (“ln(normalized median fluorescence intensity)”: median about 7.1, highest 2% from about 10 on). Shown is part of a subset that was picked to be rich in the highest values.
Use 9 as the dividing line for gcPBM binding intensity (ln), with the line itself on the T side and lower values as F.

Query string: # bool: gcPBM binding intensity (ln) of ATATAGTATTAATTTGCATGTCATGTATTAGGTCGA [TGCATGCA_site540] >= 9
Result string: F

Query string: # bool: gcPBM binding intensity (ln) of TTTTTTTTTTTTTTTTTTTTTTTTTTATGATATATA [GTGCAC_negctrl_site365] >= 9
Result string: F

Query string: # bool: gcPBM binding intensity (ln) of TATGGAATAAATTTATCCATACATCTTATAACATAT [XGTACX_negctrl_site500] >= 9
Result string: F

Query string: # bool: gcPBM binding intensity (ln) of GTATTATATATATAGGTGCATATATATATATAAATA [GTGCAC_site9787] >= 9
Result string: T
